All figures here come from PubChem BioAssay (NCI).

# Tested on: SR leukemia
# measurement-protocol: NCI tumour cell line growth inhibition, 48 h
Here the recorded TGI is given for each entry.

Solved cases below.
molecule: O=c1[nH]nc(-c2ccccc2)n1/N=C/c1cccnc1
measured-target: SR leukemia
TGI: > 100 µM

molecule: CCSCCCN(CCCSCC)CCCSCC
measured-target: SR leukemia
TGI: > 100 µM

molecule: N#CC(c1nc2ccccc2nc1Cl)S(=O)(=O)c1ccccc1 (stereo not given)
measured-target: SR leukemia
TGI: > 100 µM

*Q* Output measured TGI for this item: C=C1C(=O)OC2C1C(OC(=O)/C(C)=C/C)CC(O)(CCl)C1C(O)C3OC3(C)C21O (stereo not given)
*A* > 50 µM

*Q* Query TGI for CCOc1cc2ncc(C#N)c(Nc3ccc(OCc4ccccn4)c(Cl)c3)c2cc1NC(=O)/C=C/CN(C)C
*A* > 3.38 µM
